Test system: Human papillomavirus type 1a protein E7 (residues 44-93)
Assay: HPV1a E7 fragment binders on microarrays, primary screen, biochemical, small-molecule microarray, residues 44-93, 635 nm fluorescence (AID 1108);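 note: E7 fragment applied at 1 µg/mL in TBST for 1 h at 4 C; score combines spot fluorescence with its signal to noise ratio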
Settings: small-molecule microarray binding, fluorescence 635 nm; higher = more signal
composite z-score of 1 or higher: criterion met. Under 1: criterion not met.

Example results:
{"mol_smiles": "CO[C@H]1O[C@H](CO)[C@@H](OC(=O)Nc2cccc(F)c2)[C@H](OC(=O)Nc2ccc3c(c2)OCO3)[C@@H]1OC(=O)Nc1ccc2c(c1)OCO2", "target_under_test": "Human papillomavirus type 1a protein E7 (residues 44-93)", "class_name": "criterion met"}
{"mol_smiles": "COc1ccc([Si](C)(C)[C@H]2[C@H](CC(=O)N(CCO)Cc3ccccc3)O[C@@]3(C(=O)N(Cc4ccc(N5C(=O)c6cccc7cccc5c67)cc4)c4ccccc43)[C@@H]2C)cc1", "target_under_test": "Human papillomavirus type 1a protein E7 (residues 44-93)", "class_name": "criterion met"}
{"mol_smiles": "CC(=O)NCCCC[C@@H]1NC(=O)[C@H]2C[C@@H](C(=O)O)[C@@H](c3cccc(OCCO)c3)N2C1=O", "target_under_test": "Human papillomavirus type 1a protein E7 (residues 44-93)", "class_name": "criterion met"}
{"mol_smiles": "COC(=O)[C@@]1(Cc2ccc(F)cc2)[C@H]2c3cc(C(=O)N4CCCC4)n(Cc4ccc(C(F)(F)F)nc4)c3C[C@H]2CN1C(=O)c1ccccc1", "target_under_test": "Human papillomavirus type 1a protein E7 (residues 44-93)", "class_name": "criterion met"}
{"mol_smiles": "Cc1cccc([C@H]2C[C@H]3C(Br)=C[C@@]2(CO)C(=O)[C@]32CO2)c1", "target_under_test": "Human papillomavirus type 1a protein E7 (residues 44-93)", "class_name": "criterion not met"}

State whether the measured composite z-score reaches 1, counting equality as reaching it, for CO[C@H]1O[C@H](CO)[C@@H](OC(=O)CCc2ccccc2)[C@@H]2OC(=O)[C@@H](Cc3ccc4ccccc4c3)C/C=C/C[C@H](Cc3ccc4ccccc4c3)C(=O)O[C@@H]12
criterion not met

Decide: is the reported value of composite z-score for CC(C)C[C@@H]1NC(=O)[C@@H]2C[C@H](C(=O)NCCCCCCNC(=O)CS)[C@H](c3ccc(O)cc3)N2C1=O equal to or greater than 1?
criterion met

API: above_or_equal(metric=composite z-score, cutoff=1) for item COC(=O)[C@@]1(Cc2ccc(F)cc2)[C@@H]2C(=CC(=O)[C@H]2CC(=O)C(=O)N2CCCC2)CN1C(=O)c1ccccc1
criterion met

Dear colleague, could you confirm whether CC(C)(C)OC(=O)CC[C@@]1(C(N)=O)N=C(c2ccc(OCCCO)cc2)O[C@@H]1c1ccccc1CN=[N+]=[N-] has composite z-score at or above 1?
criterion met

Does the molecule C=CCOC(=O)[C@@H]1[C@H]2C(=O)O[C@H](c3ccccc3)[C@H](c3ccccc3)N2[C@H](c2ccc(OCCOC(=O)[C@H]3C[C@H]4C(=O)N[C@@H](CCCCN(C)C)C(=O)N4[C@H]3c3cccc(OCCO)c3)cc2)[C@@]12C(=O)Nc1ccccc12 have recorded composite z-score that is 1 or more?
criterion not met

Check the entry CC(C)N1C(=O)[C@@]2(Cc3ccccc31)c1ccccc1C(=O)N(Cc1ccccc1)[C@H]2c1ccc(CO)cc1 : does composite z-score equal or exceed 1?
criterion not met

Has C=C[C@H](C)[C@@H](OC(=O)Nc1ccc(SC)cc1)c1ccc(OCCO)cc1 a recorded composite z-score greater than or equal to 1?
criterion met

Form field: composite z-score at least 1? Entry: C=CCNC(=O)[C@H]1[C@@H]2C(=O)O[C@@H](c3ccccc3)[C@@H](c3ccccc3)N2[C@@H](c2ccc(OCCO)cc2)[C@]12C(=O)N(C(=O)OCCOC)c1ccc(C#CCC(C(=O)OC)C(=O)OC)cc12
criterion met
